- Target Of Assay: Calcineurin (Homo sapiens, UniProt P63098+Q08209)
- Assay Name: biochemical
Square brackets hold non-standard residues; d marks the D form. Peptide text beside a SMILES is read from it. * marks the point of attachment. NMe(2-epi-Bmt) = C/C=C/C[C@@H](C)[C@@H](O)[C@@H](NC)C(=O)O; Ala(3-yl) = N[C@@H](C*)C(=O)O; NMeL = CN[C@@H](CC(C)C)C(=O)O; dNMeL = CN[C@H](CC(C)C)C(=O)O; dNMeV = CN[C@@H](C(=O)O)C(C)C; dNMeC = CN[C@H](CS)C(=O)O; dAbu = CC[C@@H](N)C(=O)O; CH2CH2COOH = O=C(O)CC*; X1 = COC(=O)C*
Experimental Endpoint: pIC50
Scale for pIC50: -log10 of concentration given in mol/L; no unit attached.

# example entries with known answers
Compound	pIC50
C/C=C/C[C@@H](C)[C@@H](O)[C@@H]1C(=O)N[C@H](CC)C(=O)N(C)[C@H](CSCC(=O)OC)C(=O)N(C)[C@@H](CC(C)C)C(=O)N[C@H](C(C)C)C(=O)N(C)[C@H](CC(C)C)C(=O)N[C@H](C)C(=O)N[C@@H](C)C(=O)N(C)[C@H](CC(C)C)C(=O)N(C)[C@H](CC(C)C)C(=O)N(C)[C@H](C(C)C)C(=O)N1C [Example 11] (cyclo(A[dNMeL][dNMeL][dNMeV][NMe(2-epi-Bmt)][dAbu][dNMeC](X1)[NMeL][dV][dNMeL][dA]))	5.41
C/C=C/C[C@@H](C)[C@@H](O)[C@@H]1C(=O)N[C@H](CC)C(=O)N(C)[C@H](CSCCC(=O)O)C(=O)N(C)[C@@H](CC(C)C)C(=O)N[C@H](C(C)C)C(=O)N(C)[C@H](CC(C)C)C(=O)N[C@H](C)C(=O)N[C@@H](C)C(=O)N(C)[C@H](CC(C)C)C(=O)N(C)[C@H](CC(C)C)C(=O)N(C)[C@H](C(C)C)C(=O)N1C [Example 17] (cyclo(A[dNMeL][dNMeL][dNMeV][NMe(2-epi-Bmt)][dAbu][dNMeC](CH2CH2COOH)[NMeL][dV][dNMeL][dA]))	4.77

Data request: // lookup pIC50 for C/C=C/C[C@@H](C)[C@@H](O)[C@@H]1C(=O)N[C@H](CC)C(=O)N(C)[C@H](CSC[C@H](N)C(=O)O)C(=O)N(C)[C@@H](CC(C)C)C(=O)N[C@H](C(C)C)C(=O)N(C)[C@H](CC(C)C)C(=O)N[C@H](C)C(=O)N[C@@H](C)C(=O)N(C)[C@H](CC(C)C)C(=O)N(C)[C@H](CC(C)C)C(=O)N(C)[C@H](C(C)C)C(=O)N1C [Example 14] (cyclo(A[dNMeL][dNMeL][dNMeV][NMe(2-epi-Bmt)][dAbu][dNMeC](Ala(3-yl))[NMeL][dV][dNMeL][dA]))
Data returned: 5.13

====

- Target Of Assay: Calcineurin (Homo sapiens, UniProt P63098+Q08209)
- Assay Name: biochemical
Square brackets hold non-standard residues; d marks the D form. Peptide text beside a SMILES is read from it. * marks the point of attachment. NMe(2-epi-Bmt) = C/C=C/C[C@@H](C)[C@@H](O)[C@@H](NC)C(=O)O; Ethyl(2-morpholino) = C1CN(CC*)CCO1; NMeL = CN[C@@H](CC(C)C)C(=O)O; dNMeL = CN[C@H](CC(C)C)C(=O)O; dNMeV = CN[C@@H](C(=O)O)C(C)C; dNMeC = CN[C@H](CS)C(=O)O; dAbu = CC[C@@H](N)C(=O)O
Experimental Endpoint: pIC50
Note on pIC50: it is the negative log10 of concentration, concentration in mol/L.

Data request: GET /values?readout=pIC50&item= C/C=C/C[C@@H](C)[C@@H](O)[C@@H]1C(=O)N[C@H](CC)C(=O)N(C)[C@H](CSCCN2CCOCC2)C(=O)N(C)[C@@H](CC(C)C)C(=O)N[C@H](C(C)C)C(=O)N(C)[C@H](CC(C)C)C(=O)N[C@H](C)C(=O)N[C@@H](C)C(=O)N(C)[C@H](CC(C)C)C(=O)N(C)[C@H](CC(C)C)C(=O)N(C)[C@H](C(C)C)C(=O)N1C [Example 10] (cyclo(A[dNMeL][dNMeL][dNMeV][NMe(2-epi-Bmt)][dAbu][dNMeC](Ethyl(2-morpholino))[NMeL][dV][dNMeL][dA]))
Data returned: 5.38
